Sourced from PubChem BioAssay

# experimentalProtocol: RPL19A-GFP modulators, yeast TOR pathway, confirmation, cell-based, S. cerevisiae, flow cytometry, cherry picks, mother/daughter gates (AID 2270)
# appliedConditions: S. cerevisiae RPL19A-GFP strain, 3 h, measured here: daughter cell gate, at 10 µM, stronger effect = lower value, 100 = same GFP as DMSO wells
propertyMeasured: GFP response vs DMSO (%)
Response body: numeric value in %, unit text excluded.

Check out these entries, answers already filled in.
- molecule: "O=C(OCCCOC(=O)c1ccc(Br)o1)c1ccc(Br)o1"
  GFP response vs DMSO [%]: 95.3
- molecule: "Cc1ccc(S(=O)(=O)NCC23C=CC(O2)C2C(=O)N(c4ccccc4)C(=O)C23)cc1 (stereo unspecified)"
  GFP response vs DMSO [%]: 98.9
- molecule: "Cc1cc(C)c2sc(NC(=O)C3=COCCO3)nc2c1"
  GFP response vs DMSO [%]: 95.5
- molecule: "Cc1ccc(S(=O)(=O)/N=C(\\Sc2ccccc2)c2ccccc2)cc1"
  GFP response vs DMSO [%]: 98.3
- molecule: "CN(C)CCCNc1cc(C(C)(C)C)nc2c(-c3ccc(Cl)cc3)cnn12"
  GFP response vs DMSO [%]: 89

For reference, reported GFP response vs DMSO for "CCOC(=O)c1c(C)[nH]c(C)c1C(=O)COC(=O)c1cc2ccccc2cc1O" stands at 97.3

For reference, reported GFP response vs DMSO for "CCNC(=O)/C(C#N)=C/c1c(N(Cc2ccccc2)Cc2ccccc2)nc2ccccn2c1=O" stands at 101

For reference, reported GFP response vs DMSO for "Cc1ccc(NC(=O)c2ccc([N+](=O)[O-])o2)cc1C" stands at 104

---

# experimentalProtocol: modulators of CIT2-GFP expression in yeast, confirmation, S. cerevisiae, GFP fusion, cherry picks, mother/daughter gates (AID 2274)
# appliedConditions: S. cerevisiae CIT2-GFP strain, flow cytometry, 3 h; at 10 µM; stronger effect = higher value
Entries and their measured GFP response, % of DMSO follow.
Response body: numeric value in %, unit text excluded.

Check out these entries, answers already filled in.
- smi: "Cc1nn2c(N3CCN(C(=O)c4ccco4)CC3)cc(C(C)(C)C)nc2c1-c1ccccc1"
  experimentalResult: 95.5
- smi: "Cc1c(CC(C)C)nc(N)c(C#N)c1-c1ccccc1"
  experimentalResult: 102
- smi: "Cc1ccc(S(=O)(=O)CC#CCOC(=O)c2ccc([N+](=O)[O-])cc2)cc1"
  experimentalResult: 97.2

For reference, reported GFP response, % of DMSO for "CCOC(=O)COc1c(Cl)cc(/C=C2\N=C(C)OC2=O)cc1OC" stands at 103

For reference, reported GFP response, % of DMSO for "O=C(O)c1ccc(N/N=C/C(Br)=C/c2ccccc2)cc1" stands at 90.7

For reference, reported GFP response, % of DMSO for "CC(=O)Oc1c(C)cc(Cl)cc1C(=O)Nc1ccc([N+](=O)[O-])cc1Cl" stands at 90.9

For reference, reported GFP response, % of DMSO for "CC(=O)c1cc(NC(=O)c2ccc(C)cc2)c(=O)oc1C" stands at 99.3

---

# experimentalProtocol: RPL19A-GFP modulators, yeast TOR pathway, confirmation, cell-based, S. cerevisiae, flow cytometry, cherry picks, mother/daughter gates (AID 2270)
# appliedConditions: S. cerevisiae RPL19A-GFP strain, 3 h, measured here: mother cell gate, at 10 µM, stronger effect = lower value, 100 = same GFP as DMSO wells
propertyMeasured: GFP response vs DMSO
Could you give the number and then its unit, please?

For reference, reported GFP response vs DMSO for O=C(CSc1nc2ccsc2c(=O)n1CC1CCC(C(=O)O)CC1)c1ccc(F)cc1 (stereo unspecified) stands at 103%

For reference, reported GFP response vs DMSO for CC(=O)Oc1ccc(N2C(=O)C3C4C=CC(CO)(O4)C3C2=O)cc1 (stereo unspecified) stands at 97.8%

---

Entries and their measured GFP response, % of DMSO follow.
# experimentalProtocol: modulators of CIT2-GFP expression in yeast, confirmation, S. cerevisiae, GFP fusion, cherry picks, mother/daughter gates (AID 2274)
# appliedConditions: S. cerevisiae CIT2-GFP strain, flow cytometry, 3 h; measured here: daughter cell gate; at 10 µM; stronger effect = higher value
Response body: numeric value in %, unit text excluded.

For reference, reported GFP response, % of DMSO for "Cc1c(O)ccc(C(=O)CN2CCN(c3ccc(F)cc3)CC2)c1O" stands at 99.3

For reference, reported GFP response, % of DMSO for "Cc1cc(NC(=O)c2cccnc2Cl)ccc1NC(=O)c1cc2ccccc2o1" stands at 97.4

For reference, reported GFP response, % of DMSO for "CCOc1cc(C)c(S(=O)(=O)N2CCCC2)cc1C" stands at 72.1

For reference, reported GFP response, % of DMSO for "O=c1c(-c2ccc(Cl)cc2)[n+]([O-])c2ccccc2n1O" stands at 90.9

For reference, reported GFP response, % of DMSO for "O=[N+]([O-])/C=C/c1cn(Cc2ccccc2)c2ccccc12" stands at 94.8

For reference, reported GFP response, % of DMSO for CCCc1[nH]nc2c1C(c1ccc(OC(=O)c3ccco3)cc1)C(C#N)=C(N)O2 (stereo unspecified) stands at 108

For reference, reported GFP response, % of DMSO for "O=S(=O)(Nc1cccc(-c2ccc(N3CCCCCC3)nn2)c1)c1ccccc1F" stands at 101

---

# experimentalProtocol: inhibitors of fungal efflux pumps CDR1, CDR2, MDR1, pilot screen, validation compound set, multiplex, phenotypic (AID 588506);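 further: Nile Red retained in cells so higher fluorescence means more efflux inhibition; 0 = negative control wells and 1 = enniatin B 25 µM full block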
# appliedConditions: S. cerevisiae pump-expressing triplex, Nile Red efflux flow cytometry; at 10 µM; the pumps come from Candida albicans
Active and inactive are the calls of the source.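 How the source made its calls: active means efflux inhibition above 0.42, the validation set average plus 4 SD; inconclusive means no clear call, values can overlap the other calls; inactive means the rest.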
Your response should consist of one outcome taken from active, inactive

- compound: "O=C(NNC(=O)c1cccs1)c1ccco1"
  assignedLabel: "inactive"

Would you kindly look at the next entry?
## Input Dear colleague, could you share the recorded outcome for "Cc1ccc(S(=O)(=O)Nc2ccc(S(=O)(=O)Nc3cc(C)nc(C)n3)cc2)cc1" when you have a moment?
## Output inactive

---

Entries and their measured GFP response vs DMSO follow.
# experimentalProtocol: modulators of MEP2-GFP levels in yeast, confirmation, S. cerevisiae, flow cytometry GFP, cherry picks (AID 2272);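 further: ratio of well signal to plate DMSO mean so 100% equals DMSO level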
# appliedConditions: S. cerevisiae MEP2-GFP strain, 3 h, at 10 µM, stronger effect = higher value
Response body: numeric value in %, unit text excluded.

- compound: "Cc1cc(C)nc(S/C=C/C(=O)c2ccccc2F)n1"
  GFP response vs DMSO, %: 107
- compound: "O=C(N/N=C/c1ccc(OCCCF)cc1)c1cc(OCC(F)(F)F)ccc1OCC(F)(F)F"
  GFP response vs DMSO, %: 102
- compound: "O=[N+]([O-])c1ccc(N2N=C(c3ccco3)CC2c2ccccc2)cc1 (stereo not drawn)"
  GFP response vs DMSO, %: 131
- compound: "Cc1ccccc1N1C(=O)CC(Sc2nnc(-c3ccccc3)o2)C1=O (stereo not drawn)"
  GFP response vs DMSO, %: 103
- compound: "O=C(Nc1cccc(O)c1)c1ccccc1"
  GFP response vs DMSO, %: 98.3
- compound: "CCc1noc(C)c1C(=O)Nc1nc(-c2cc(C)ccc2C)c(C)s1"
  GFP response vs DMSO, %: 100

For reference, reported GFP response vs DMSO for "COC(=O)c1ccc(NC(=O)c2nc(S(=O)(=O)Cc3cccc(C)c3)ncc2Cl)cc1" stands at 100

For reference, reported GFP response vs DMSO for "Cc1nc(C)c(-c2csc(NCCc3ccccc3)n2)s1" stands at 112

For reference, reported GFP response vs DMSO for "COc1ccc(-c2csc(N(CC(C)C)C(=O)c3ccco3)n2)cc1" stands at 101

For reference, reported GFP response vs DMSO for "Cc1nn(Cc2ccc(Cl)cc2)c(=O)n1N(C)c1ncc(C(F)(F)F)cc1Cl" stands at 96.2

For reference, reported GFP response vs DMSO for "CC(C)Oc1ccc(C(=O)/C=C2/C(=O)Nc3ccccc32)cc1" stands at 111

---

# experimentalProtocol: RPL19A-GFP modulators, yeast TOR pathway, confirmation, cell-based, S. cerevisiae, flow cytometry, cherry picks, mother/daughter gates (AID 2270)
# appliedConditions: S. cerevisiae RPL19A-GFP strain, 3 h, measured here: daughter cell gate, at 10 µM, stronger effect = lower value, 100 = same GFP as DMSO wells
propertyMeasured: GFP response vs DMSO (%)
Response body: numeric value in %, unit text excluded.

Check out these entries, answers already filled in.
- compound: "Cc1ccc(C2=NN(S(C)(=O)=O)C(c3ccc4c(c3)OCO4)C2)cc1 (centres undefined)"
  unitLabel: "%"
  GFP response vs DMSO: 99.6
- compound: "Cc1cccc(CS(=O)(=O)c2ncc(Cl)c(C(=O)Nc3c(C)cccc3C)n2)c1"
  unitLabel: "%"
  GFP response vs DMSO: 98.6
- compound: "COc1cc(NC(=O)c2ccccc2[N+](=O)[O-])ccc1NC(=O)c1cc2ccccc2o1"
  unitLabel: "%"
  GFP response vs DMSO: 99.1

For reference, reported GFP response vs DMSO for "Cc1ccc(/C(C#N)=C\c2ccc(N3CCOCC3)o2)cc1" stands at 97.1

For reference, reported GFP response vs DMSO for "COc1cccc2cc(C(=O)N3CCN(C/C=C/c4ccccc4)CC3)c(=O)oc12" stands at 99.6

For reference, reported GFP response vs DMSO for "Cc1onc(-c2c(Cl)cccc2Cl)c1NC(=O)NNc1c(Cl)cncc1Cl" stands at 99.4

For reference, reported GFP response vs DMSO for "CCCc1cc(NCc2ccccn2)n2nc(C)c(-c3ccccc3)c2n1" stands at 88

For reference, reported GFP response vs DMSO for "O/C=c1\ccc2cccc3nc(C(F)(F)F)nc1c23" stands at 111

For reference, reported GFP response vs DMSO for CCOc1ccc(C(C)=O)cc1N1C(=O)C2C3C=CC(O3)C2C1=O (centres undefined) stands at 105

For reference, reported GFP response vs DMSO for "Cc1nnc(NC(=O)c2nc(S(=O)(=O)Cc3ccccc3)ncc2Cl)s1" stands at 96.7

For reference, reported GFP response vs DMSO for "Cc1ccn2c(NC(=O)c3ccco3)c(-c3ccccc3)nc2c1" stands at 100

For reference, reported GFP response vs DMSO for "Cc1cc(C)nc(/N=c2/ssnc2Cl)c1" stands at 87.3

For reference, reported GFP response vs DMSO for "O=C(OCc1ccco1)c1ccc(S(=O)(=O)N2CCCCC2)cc1" stands at 97.9

For reference, reported GFP response vs DMSO for "Cc1[nH][nH]c(=O)c1C(c1ccc(-c2ccc(Cl)c(Cl)c2)o1)c1c(C)[nH][nH]c1=O" stands at 104

For reference, reported GFP response vs DMSO for COc1ccc(OC)c(S(=O)(=O)N2Cc3ccccc3CC2C(=O)O)c1 (centres undefined) stands at 101

For reference, reported GFP response vs DMSO for "CCOC(=O)C1(Cc2ccccc2Cl)CCN(C(=O)CCn2ccnc2C)CC1" stands at 97.3

For reference, reported GFP response vs DMSO for "COc1ccccc1C1CCN(Cc2c(C)[nH]c3ccccc23)CC1" stands at 102

For reference, reported GFP response vs DMSO for "CCN(CC)Cc1c(O)ccc2c(C)c(CC(=O)OC)c(=O)oc12" stands at 101

For reference, reported GFP response vs DMSO for "COc1cc(NC(=O)c2cccc(F)c2)ccc1NC(=O)c1cc2ccccc2o1" stands at 98.3

For reference, reported GFP response vs DMSO for "O=[N+]([O-])c1cc(C(F)(F)F)ccc1NCCc1ccccn1" stands at 99.3
